- testTarget: Cytochrome P450 1A2 (Homo sapiens)
- experimentalProtocol: Cytochrome panel assay with activity outcomes
- conditionSet: recombinant CYP, pro-luciferin dealkylation, luminescence, p450-cyp1a2; series mostly up to 57.1 µM
Among all 16,000 compounds or so, about 5,700 (36%) were called active. About 24% were inconclusive and are not listed. Some of the results follow.
readoutName: AC50

molecule	AC50
COc1ccc(NC(=O)CCNS(=O)(=O)c2ccc3c(c2)c(=O)n(C)c(=O)n3C)cc1	inactive
CC(=O)OC1CCC(OC(C)=O)c2c1n([O-])c(C)c(C)[n+]2=O (stereo not given)	inactive
Cc1nc2nc(C)c(CCC(=O)NCCCN3CCN(c4cccc(Cl)c4)CC3)c(C)n2n1	inactive
COc1ccc(S(=O)(=O)NCCC(=O)NC(C)c2ccccc2)cc1 (stereo not given)	inactive

Now look at this one.
Q: Which measured AC50 value corresponds to `COc1ccc(OCCNS(=O)(=O)c2ccc3oc4ccccc4c3c2)cc1` ?
Result: 2820 nM (active)

Source listed as PubChem BioAssay AID1851.
